Test system: calf thymus DNA (CT-DNA)
Assay: DNA thermal denaturation (melting) studies
Type: binding
Conditions: CT-DNA 100 μM DNAp, compound 20 μM, 37 °C, pH 7.00, 18 hours
Each entry below lists one item and its recorded Induced ΔTm after incubation 18 hours value.
Numbers only here, please. The scale is °C.

// worked examples, Induced ΔTm after incubation 18 hours included
compound="CCOC(=O)c1csc(NC(=O)c2csc(NC(=O)c3csc(NC(=O)CCCOc4cc5c(cc4OC)C(=O)N4CCC[C@H]4C=N5)n3)n2)n1 [Compound 83]" system_name="calf thymus DNA (CT-DNA)" unit_annotation=°C readout_value=10.9
compound="COC(=O)c1cc(NC(=O)c2nc(NC(=O)c3cc(NC(=O)CCCOc4cc5c(cc4OC)C(=O)N4CCC[C@H]4C=N5)cn3C)cn2C)cn1C [Compound 71]" system_name="calf thymus DNA (CT-DNA)" unit_annotation=°C readout_value=16.9
compound="COC(=O)c1cc(NC(=O)CCCOc2cc3c(cc2OC)C(=O)N2CCC[C@H]2C=N3)cn1C [Compound 21]" system_name="calf thymus DNA (CT-DNA)" unit_annotation=°C readout_value=8.1
compound="CCOC(=O)c1csc(NC(=O)c2csc(NC(=O)CCCOc3cc4c(cc3OC)C(=O)N3CCC[C@H]3C=N4)n2)n1 [Compound 61]" system_name="calf thymus DNA (CT-DNA)" unit_annotation=°C readout_value=8.3
compound="CCOC(=O)c1nc(NC(=O)c2cc(NC(=O)CCCOc3cc4c(cc3OC)C(=O)N3CCC[C@H]3C=N4)cn2C)cn1C [Compound 65]" system_name="calf thymus DNA (CT-DNA)" unit_annotation=°C readout_value=11.2
compound="CCOC(=O)c1nc(NC(=O)c2nc(NC(=O)c3nc(NC(=O)CCCOc4cc5c(cc4OC)C(=O)N4CCC[C@H]4C=N5)cn3C)cn2C)cn1C [Compound 77]" system_name="calf thymus DNA (CT-DNA)" unit_annotation=°C readout_value=12.0
compound="CCOC(=O)c1nc(NC(=O)c2cc(NC(=O)c3cc(NC(=O)CCCOc4cc5c(cc4OC)C(=O)N4CCC[C@H]4C=N5)cn3C)cn2C)cn1C [Compound 79]" system_name="calf thymus DNA (CT-DNA)" unit_annotation=°C readout_value=15.2
compound="COC(=O)c1cc(NC(=O)c2nc(NC(=O)CCCOc3cc4c(cc3OC)C(=O)N3CCC[C@H]3C=N4)cn2C)cn1C [Compound 57]" system_name="calf thymus DNA (CT-DNA)" unit_annotation=°C readout_value=3.1

State its Induced ΔTm after incubation 18 hours for this compound: CCOC(=O)c1nc(NC(=O)c2cc(NC(=O)c3nc(NC(=O)CCCOc4cc5c(cc4OC)C(=O)N4CCC[C@H]4C=N5)cn3C)cn2C)cn1C [Compound 81]
16.2

State its Induced ΔTm after incubation 18 hours for this compound: COC(=O)c1cc(NC(=O)c2cc(NC(=O)c3csc(NC(=O)CCCOc4cc5c(cc4OC)C(=O)N4CCC[C@H]4C=N5)n3)cn2C)cn1C [Compound 69]
18.2

State its Induced ΔTm after incubation 18 hours for this compound: COC(=O)c1cc(NC(=O)c2nc(NC(=O)c3nc(NC(=O)CCCOc4cc5c(cc4OC)C(=O)N4CCC[C@H]4C=N5)cn3C)cn2C)cn1C [Compound 75]
15.4

State its Induced ΔTm after incubation 18 hours for this compound: COC(=O)c1cc(NC(=O)c2cc(NC(=O)CCCOc3cc4c(cc3OC)C(=O)N3CCC[C@H]3C=N4)cn2C)cn1C [Compound 23]
15.6

State its Induced ΔTm after incubation 18 hours for this compound: CCOC(=O)c1nc(NC(=O)c2nc(NC(=O)CCCOc3cc4c(cc3OC)C(=O)N3CCC[C@H]3C=N4)cn2C)cn1C [Compound 59]
11.4

* * *

Tested on: calf thymus DNA (CT-DNA)
Assay: DNA thermal denaturation (melting) studies
Format: binding
Settings: CT-DNA 100 μM DNAp, compound 20 μM, 37 °C, pH 7.00, 72 hours
READOUT_LABEL: Induced ΔTm after incubation 72 hours
Reply with the number and its unit after it.

compound_smiles=CCOC(=O)c1nc(NC(=O)c2cc(NC(=O)c3cc(NC(=O)CCCOc4cc5c(cc4OC)C(=O)N4CCC[C@H]4C=N5)cn3C)cn2C)cn1C readout_label="Induced ΔTm after incubation 72 hours" readout_value="15.5 °C"
compound_smiles=CCOC(=O)c1csc(NC(=O)c2csc(NC(=O)CCCOc3cc4c(cc3OC)C(=O)N3CCC[C@H]3C=N4)n2)n1 readout_label="Induced ΔTm after incubation 72 hours" readout_value="8.4 °C"
compound_smiles=COC(=O)c1cc(NC(=O)c2nc(NC(=O)CCCOc3cc4c(cc3OC)C(=O)N3CCC[C@H]3C=N4)cn2C)cn1C readout_label="Induced ΔTm after incubation 72 hours" readout_value="3.2 °C"

Turning to the following compound.
State its Induced ΔTm after incubation 72 hours for this compound: CCOC(=O)c1csc(NC(=O)c2csc(NC(=O)c3cc(NC(=O)CCCOc4cc5c(cc4OC)C(=O)N4CCC[C@H]4C=N5)cn3C)n2)n1
8.4 °C

* * *

Target: 262 bp DNA fragment (MS2F or MS2R) of MS2 plasmid
Test: DNase I footprinting on MS2 DNA fragment
Type: binding
Conditions: read-out: DNase IC50 (apparent binding affinity; 50% inhibition of DNase I-mediated cleavage); estimated by eye; site 5′-62CAATACACA70-3′
Method: The sequence selectivity of the six PBD-pyrrole conjugates (21, 23, 25, 27, 29) was evaluated by standard DNA footprinting on a fragment of MS2 as follows, in accordance with the technique described in Martin, C., et al., (Martin, C., et al., Biochemistry, 44(11), 4135-4147 (2005)) […] Dried gels were stored at room temperature in phosphor storage screens (Molecular Dynamics) for a minimum period of 12 h. […] Data were expressed as the differential cleavage between control and sample lanes. […]
Each entry below lists one item and its recorded IC50 value.

// worked examples, IC50 included
compound="COC(=O)c1cc(NC(=O)c2cc(NC(=O)CCCOc3cc4c(cc3OC)C(=O)N3CCC[C@H]3C=N4)cn2C)cn1C [Compound 23]" readout_value="100 to 300 nM"
compound="COC(=O)c1cc(NC(=O)c2cc(NC(=O)c3cc(NC(=O)CCCOc4cc5c(cc4OC)C(=O)N4CCC[C@H]4C=N5)cn3C)cn2C)cn1C [Compound 25]" readout_value="30 to 100 nM"

Turning to the following compound.
Give measured IC50 for COC(=O)c1cc(NC(=O)c2cc(NC(=O)c3cc(NC(=O)c4cc(NC(=O)CCCOc5cc6c(cc5OC)C(=O)N5CCC[C@H]5C=N6)cn4C)cn3C)cn2C)cn1C [Compound 27] (262 bp DNA fragment (MS2F or MS2R) of MS2 plasmid).
~30 nM

* * *

Test system: NF-Y binding at ICB1 of Topoisomerase IIα promoter
Assay: NF-Y gel shift assay (EMSA) at ICB1
READOUT_LABEL: Lowest concentration at which NF-Y binding inhibition was observed (µM)
Numbers only here, please. The scale is µM.

// worked examples, Lowest concentration at which NF-Y binding inhibition was observed included
compound="COC(=O)c1cc(NC(=O)c2cc(NC(=O)CCCOc3cc4c(cc3OC)C(=O)N3CCC[C@H]3C=N4)cn2C)cn1C [Compound 23]" unit_annotation=µM readout_value=5
compound="COC(=O)c1cc(NC(=O)c2cc(NC(=O)c3csc(NC(=O)CCCOc4cc5c(cc4OC)C(=O)N4CCC[C@H]4C=N5)n3)cn2C)cn1C [Compound 69]" unit_annotation=µM readout_value=50

Turning to the following compound.
Give measured Lowest concentration at which NF-Y binding inhibition was observed for COC(=O)c1cc(NC(=O)c2cc(NC(=O)c3nc(NC(=O)CCCOc4cc5c(cc4OC)C(=O)N4CCC[C@H]4C=N5)cn3C)cn2C)cn1C [Compound 67] (NF-Y binding at ICB1 of Topoisomerase IIα promoter).
50

* * *

Test system: 170 bp sequence of the human Topo-IIa promoter
Test: DNase I footprinting on Topo-IIa promoter (ICB1, ICB2 sites)
Assay type: binding
Settings: ICB2 site
Each entry below lists one item and its recorded Concentration at which DNA binding is observed, ICB2 value.
Numbers only here, please. The scale is µM.

// worked examples, Concentration at which DNA binding is observed, ICB2 included
compound_smiles=CCOC(=O)c1nc(NC(=O)c2nc(NC(=O)c3cc(NC(=O)CCCOc4cc5c(cc4OC)C(=O)N4CCC[C@H]4C=N5)cn3C)cn2C)cn1C unit_annotation=µM readout_value=5
compound_smiles=COC(=O)c1cc(NC(=O)c2cc(NC(=O)c3csc(NC(=O)CCCOc4cc5c(cc4OC)C(=O)N4CCC[C@H]4C=N5)n3)cn2C)cn1C unit_annotation=µM readout_value=5
compound_smiles=COC(=O)c1cc(NC(=O)c2csc(NC(=O)c3cc(NC(=O)CCCOc4cc5c(cc4OC)C(=O)N4CCC[C@H]4C=N5)cn3C)n2)cn1C unit_annotation=µM readout_value=1
compound_smiles=COC(=O)c1cc(NC(=O)c2nc(NC(=O)c3cc(NC(=O)CCCOc4cc5c(cc4OC)C(=O)N4CCC[C@H]4C=N5)cn3C)cn2C)cn1C unit_annotation=µM readout_value=5

State its Concentration at which DNA binding is observed, ICB2 for this compound: COC(=O)c1cc(NC(=O)c2cc(NC(=O)c3nc(NC(=O)CCCOc4cc5c(cc4OC)C(=O)N4CCC[C@H]4C=N5)cn3C)cn2C)cn1C
1

State its Concentration at which DNA binding is observed, ICB2 for this compound: COC(=O)c1cc(NC(=O)c2cc(NC(=O)CCCOc3cc4c(cc3OC)C(=O)N3CCC[C@H]3C=N4)cn2C)cn1C
1
